measured_on: beta-catenin/TCF4 engagement (Homo sapiens)
Construct: expressed in transfected cells; host or cells: HEK293
Sequence (P35222 whole entry): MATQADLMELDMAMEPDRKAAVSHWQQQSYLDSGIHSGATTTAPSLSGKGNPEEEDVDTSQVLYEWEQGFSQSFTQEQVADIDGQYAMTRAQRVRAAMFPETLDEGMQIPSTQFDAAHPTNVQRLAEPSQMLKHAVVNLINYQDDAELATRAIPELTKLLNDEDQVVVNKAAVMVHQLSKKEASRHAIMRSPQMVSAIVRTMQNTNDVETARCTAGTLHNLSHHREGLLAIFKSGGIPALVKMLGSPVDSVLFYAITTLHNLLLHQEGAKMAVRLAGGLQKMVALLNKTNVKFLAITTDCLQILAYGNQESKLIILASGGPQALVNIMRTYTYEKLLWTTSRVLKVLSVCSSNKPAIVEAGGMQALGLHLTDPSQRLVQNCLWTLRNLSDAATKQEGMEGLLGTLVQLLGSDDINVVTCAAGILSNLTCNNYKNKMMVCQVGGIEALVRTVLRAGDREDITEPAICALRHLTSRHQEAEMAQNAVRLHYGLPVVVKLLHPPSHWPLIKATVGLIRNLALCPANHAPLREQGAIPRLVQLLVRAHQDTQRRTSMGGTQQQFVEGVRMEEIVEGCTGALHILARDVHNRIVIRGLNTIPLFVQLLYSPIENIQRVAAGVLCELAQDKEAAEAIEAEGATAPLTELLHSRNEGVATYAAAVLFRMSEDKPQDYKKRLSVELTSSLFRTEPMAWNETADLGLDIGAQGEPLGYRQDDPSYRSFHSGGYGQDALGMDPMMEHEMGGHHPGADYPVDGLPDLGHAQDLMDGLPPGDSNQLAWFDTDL
experiment: Nano-BRET target engagement assay (B-cat-Halo & TCF4-Luc in HEK293 cells)
Type: cell-based
reported_conditions: absolute IC50; read-out: NanoBRET Abs IC50
measure: IC50

Consider the reported IC50 for these compounds:
| compound | IC50 |
| --- | --- |
| C[C@@H]1NC(=O)[C@H](C)NC(=O)[C@H](CN(CC(=O)O)CC(F)(F)F)NC(=O)[C@H](CC(=O)O)NC(=O)C2(CCCC=CCCCOC(=O)N3CC[C@@](C(=O)N[C@@H](Cc4ccsc4)C(=O)N[C@@H](Cc4csc5ccccc45)C(=O)N[C@@H](CCC(N)=O)C(N)=O)(C3)NC(=O)[C@H](CC(N)=O)NC(=O)[C@H](Cc3ccccc3)NC1=O)CCCC=CC[C@]1(CCCN1S(C)(=O)=O)C(=O)N[C@@H](CC(=O)O)C(=O)N[C@@H](CC(C)(C)C)C(=O)N2 (stereo partly drawn) [I-1219] | > 20 µM |
| CC(=O)N1CCC[C@]12CC=CCCCC1(CCCC=CCCCOC(=O)N3CC[C@@](C(=O)N[C@@H](Cc4ccccc4C(F)(F)F)C(=O)N[C@@H](Cc4ccc5c(c4)CCC5)C(=O)N[C@@H](CO)C(N)=O)(C3)NC(=O)[C@H](CC(C)C)NC(=O)[C@H](Cc3ccccc3)NC(=O)[C@H](C)NC(=O)[C@H](C)NC(=O)[C@H](Cc3cccc(C(=O)O)c3)NC(=O)[C@H](CC(=O)O)NC1=O)NC(=O)[C@H](CC(C)(C)C)NC(=O)[C@H](CC(=O)O)NC2=O (stereo partly drawn) [I-2297] | 5.5 µM |

Now examine the next entry.
[in] Record lookup: for beta-catenin/TCF4 engagement (Homo sapiens), what IC50 belongs to CC(=O)N1CCC[C@]12CC=CCCCC1(CCCC=CCCCOC(=O)N3CC[C@@](C(=O)N[C@@H](Cc4ccsc4)C(=O)N[C@@H](Cc4csc5ccccc45)C(=O)N[C@@H](CCC(N)=O)C(N)=O)(C3)NC(=O)[C@H](CC(C)C)NC(=O)[C@H](Cc3ccccc3)NC(=O)[C@H](C)NC(=O)[C@H](C)NC(=O)[C@H](CN(CC(=O)O)CC(F)(F)F)NC(=O)[C@H](CC(=O)O)NC1=O)NC(=O)[C@H](CC(C)(C)C)NC(=O)[C@H](CC(=O)O)NC2=O (stereo partly drawn) [I-1461] ?
[out] 3.7 µM

* * *

Provide the recorded pIC50 for the entries that follow.
measured_on: full-length beta-Catenin (Uniprot ID P35222) (Homo sapiens, UniProt P35222)
Construct: 10 nM full-length beta-Catenin (Uniprot ID P35222)
Sequence (P35222 whole entry): as above
experiment: Fluorescence polarization IC50 (beta-catenin / 5FAM-TCF4 10-53 competition)
Type: binding
reported_conditions: read-out: FP EC50
Numbers only, as −log10 of the molar value.

Consider the reported pIC50 for these compounds:
| compound | pIC50 |
| --- | --- |
| CC(=O)N1CCC[C@]12CC=CCCCC1(CCCC=CCCCCCC[C@@](C)(C(=O)N[C@@H](Cc3ccccc3)C(=O)N[C@@H](Cc3csc4ccccc34)C(=O)N[C@@H](Cc3c[nH]cn3)C(N)=O)NC(=O)[C@H](CC(N)=O)NC(=O)[C@H](Cc3ccccc3)NC(=O)[C@H](C)NC(=O)[C@H](C)NC(=O)[C@H](CC(=O)O)NC(=O)[C@H](CC(=O)O)NC1=O)NC(=O)[C@H](CCC(C)C)NC(=O)[C@H](CC(=O)O)NC2=O (some centres unmarked) [I-583] | 7.16 |
| CC[C@H](C)[C@@H]1NC(=O)[C@H](CC(=O)O)NC(=O)[C@]2(CC=CCCCC3(CCCC=CCCCCCC[C@@](C)(C(=O)N[C@@H](Cc4ccccc4)C(=O)N[C@@H](Cc4csc5ccccc45)C(=O)N[C@@H](CCC(N)=O)C(N)=O)NC(=O)[C@H](CCC(N)=O)NC(=O)[C@H](Cc4ccccc4)NC(=O)[C@H](C)NC(=O)[C@H](CO)NC(=O)[C@H](CCC(=O)O)NC(=O)[C@H](CC(=O)O)NC3=O)NC1=O)CCCN2C(C)=O (some centres unmarked) [I-651] | 6.73 |
| CC(=O)N1CCC[C@]12CC=CCCCC1(CCCC=CCCCCCC[C@@](C)(C(=O)N[C@@H](Cc3ccccc3)C(=O)N[C@@H](Cc3csc4ccccc34)C(=O)N[C@@H](CCC(N)=O)C(N)=O)NC(=O)[C@H]([C@@H](C)O)NC(=O)[C@H](Cc3ccccc3)NC(=O)[C@H](C)NC(=O)[C@H](C)NC(=O)[C@H](CCC(=O)O)NC(=O)[C@H](CC(=O)O)NC1=O)NC(=O)[C@H](CC(C)C)NC(=O)[C@H](CC(=O)O)NC2=O (some centres unmarked) [I-622] | 6.64 |

Quick batch: pIC50 for everything below.
1. CC(=O)N1CCC[C@]12CC=CCCCC1(CCCC=CCCCCCC[C@@](C)(C(=O)N[C@@H](Cc3ccccc3)C(=O)N[C@@H](Cc3csc4ccccc34)C(=O)N[C@@H](Cc3c[nH]cn3)C(N)=O)NC(=O)[C@H](CC(N)=O)NC(=O)[C@H](Cc3ccccc3)NC(=O)[C@H](C)NC(=O)[C@H](C)NC(=O)[C@H](CC(=O)O)NC(=O)[C@H](CC(=O)O)NC1=O)NC(=O)[C@H](C)NC(=O)[C@H](CC(=O)O)NC2=O (some centres unmarked) [I-466]
2. CC(=O)N1CCC[C@]12CC=CCCCC1(CCCC=CCCCCCC[C@@](C)(C(=O)N[C@@H](Cc3ccsc3)C(=O)N[C@@H](Cc3csc4ccccc34)C(=O)N[C@@H](CCC(N)=O)C(N)=O)NC(=O)[C@H](CC(N)=O)NC(=O)[C@H](Cc3ccccc3)NC(=O)[C@H](C)NC(=O)[C@H](C)NC(=O)[C@H](CC(=O)O)NC(=O)[C@H](CC(=O)O)NC1=O)NC(=O)[C@H](CC(C)C)NC(=O)[C@H](CC(=O)O)NC2=O (some centres unmarked) [I-681]

[out]
1: 7.72; 2: 7.92

Origin of the recorded values: patent US20240116985A1
